Origin of values: patent US9409952B2

microsomal CLint at 1 uM values by entry
Assay: Metabolic stability in human hepatic microsome
Type: in vitro ADME
Conditions: microsomes, pH 7.4; human hepatic microsome, NADPH(+); read-out: CL NADPH(+)
Starred links: 1 amine or outer side, 2 acyl side, 3 side chain; linkers in the order of their positions; H or OH if unused. Positions of bridges follow the written chain, without caps; N, C: chain ends. Non-standard residues stand in square brackets, D forms with d. Residues, ends and D or L forms follow the SMILES beside them. *: point of attachment. NMeF = CN[C@@H](Cc1ccccc1)C(=O)O; NMeβAla = CN(CCC(=O)[*:2])[*:1]; NMeL = CN[C@@H](CC(C)C)C(=O)O; NMeV = CN[C@H](C(=O)O)C(C)C; NMeA = CN[C@@H](C)C(=O)O; Piperidide = C1CCN(*)CC1; dNMeA = CN[C@H](C)C(=O)O; Sar = CNCC(=O)O
experimental.endpoint: microsomal CLint at 1 uM (µL/min/mg)

compound="CC(C)C[C@H]1C(=O)N[C@@H](C)C(=O)N(C)[C@@H](Cc2ccccc2)C(=O)N(C)[C@@H](C(C)C)C(=O)N[C@@H](Cc2ccccc2)C(=O)N(C)[C@@H](C)C(=O)N(C)[C@@H](C)C(=O)N[C@H](C(=O)N2CCCCC2)CC(=O)N(C)[C@H](C)C(=O)N[C@@H]([C@@H](C)O)C(=O)N(C)[C@@H](C)C(=O)N1C [DP-474] ([dNMeA]T[NMeA][NMeL]A[NMeF][NMeV]F[NMeA][NMeA]D-Piperidide; lactam N-11)" experimental_endpoint="microsomal CLint at 1 uM" endpoint_result=129
compound="CC[C@H](C)[C@H](NC(=O)[C@H](Cc1ccccc1)N(C)C(=O)[C@H](Cc1ccccc1)N(C)C(=O)[C@@H]1CC(=O)N(C)CCC(=O)N[C@@H]([C@@H](C)CC)C(=O)N(C)[C@@H](Cc2ccccc2)C(=O)N(C)[C@@H](CC(C)C)C(=O)N[C@@H]([C@@H](C)O)C(=O)N(C)CC(=O)N(C)[C@@H](CC(C)C)C(=O)N[C@@H](C(C)C)C(=O)N(C)[C@@H](CC(C)C)C(=O)N1)C(=O)N1CCCCC1 [DP-961] ([NMeβAla]I[NMeF][NMeL]T[Sar][NMeL]V[NMeL]D[NMeF][NMeF]I-Piperidide; lactam N-10)" experimental_endpoint="microsomal CLint at 1 uM" endpoint_result=33

====

Assay: PAMPA (parallel artificial membrane permeability assay)
Type: in vitro ADME
Details: PAMPA; membrane permeation rate (Pe); 50 mM MOPSO buffer pH 6.5 with 5.0% glycocholic acid, 37° C., 18 hours; read-out: iPAMPA Pe
Starred links: 1 amine or outer side, 2 acyl side, 3 side chain; linkers in the order of their positions; H or OH if unused. Positions of bridges follow the written chain, without caps; N, C: chain ends. Non-standard residues stand in square brackets, D forms with d. Residues, ends and D or L forms follow the SMILES beside them. *: point of attachment. Phe(4-(CH2)5CO) = O=C([C@H](Cc1ccc(CCCCCC(=O)[*:3])cc1)N[*:1])[*:2]; NMeF = CN[C@@H](Cc1ccccc1)C(=O)O; NMeI = CC[C@H](C)[C@H](NC)C(=O)O; NMeβAla = CN(CCC(=O)[*:2])[*:1]; NMeL = CN[C@@H](CC(C)C)C(=O)O; NMeV = CN[C@H](C(=O)O)C(C)C; NMeA = CN[C@@H](C)C(=O)O; Piperidide = C1CCN(*)CC1; dNMeA = CN[C@H](C)C(=O)O; Sar = CNCC(=O)O
Papp at 18 hours, 50 µM values by entry
experimental.endpoint: Papp at 18 hours, 50 µM (×10⁻⁶ cm/s)

molecule="CC[C@H](C)[C@H]1C(=O)N(C)[C@@H](CC(C)C)C(=O)N(C)[C@@H](Cc2ccccc2)C(=O)N[C@@H](CC(C)C)C(=O)N(C)[C@@H](C(C)C)C(=O)N[C@@H](Cc2ccccc2)C(=O)N[C@@H]([C@@H](C)O)C(=O)N[C@H](C(=O)N2CCCCC2)Cc2ccc(cc2)CCCCCC(=O)N[C@@H](C)C(=O)N1C [DP-847] (A[NMeI][NMeL][NMeF]L[NMeV]FT[Phe(4-(CH2)5CO)]-Piperidide; lactam N-9)" unit="×10⁻⁶ cm/s" endpoint_result=3.3
molecule="CC[C@H](C)[C@H]1C(=O)N(C)[C@@H](CC(C)C)C(=O)N(C)[C@@H](Cc2ccccc2)C(=O)N[C@@H](CC(C)C)C(=O)N(C)[C@@H](C(C)C)C(=O)N[C@@H](Cc2ccccc2)C(=O)N[C@@H]([C@@H](C)O)C(=O)N[C@H](C(=O)N2CCCCC2)CC(=O)N(C)CCC(=O)N[C@@H](C)C(=O)N1C [DP-259] ([NMeβAla]A[NMeI][NMeL][NMeF]L[NMeV]FTD-Piperidide; lactam N-10)" unit="×10⁻⁶ cm/s" endpoint_result=28
molecule="CC[C@H](C)[C@@H]1NC(=O)[C@H](C(C)C)N(C)C(=O)[C@H](C)N(C)C(=O)[C@H]([C@@H](C)O)NC(=O)[C@@H](C)N(C)C(=O)C[C@@H](C(=O)N2CCCCC2)NC(=O)[C@H](C)NC(=O)[C@H](Cc2ccccc2)N(C)C(=O)CN(C)C(=O)[C@H](CC(C)C)N(C)C1=O [DP-485] ([dNMeA]T[NMeA][NMeV]I[NMeL][Sar][NMeF]AD-Piperidide; lactam N-10)" unit="×10⁻⁶ cm/s" endpoint_result=5.9

====

Experiment: Metabolic stability in human hepatic microsome
Assay type: in vitro ADME
Conditions: human, microsomes, pH 7.4, CL NADPH(+)
Starred links: 1 amine or outer side, 2 acyl side, 3 side chain; linkers in the order of their positions; H or OH if unused. Positions of bridges follow the written chain, without caps; N, C: chain ends. Non-standard residues stand in square brackets, D forms with d. Residues, ends and D or L forms follow the SMILES beside them. *: point of attachment. NMeF = CN[C@@H](Cc1ccccc1)C(=O)O; NMeGABA = CN(CCCC(=O)[*:2])[*:1]; NMeI = CC[C@H](C)[C@H](NC)C(=O)O; NMeL = CN[C@@H](CC(C)C)C(=O)O; NMeV = CN[C@H](C(=O)O)C(C)C; NMeA = CN[C@@H](C)C(=O)O; Piperidide = C1CCN(*)CC1; Sar = CNCC(=O)O; tBu = CC(C)(C)*
microsomal CLint at 1 uM values by entry
experimental.endpoint: microsomal CLint at 1 uM (µL/min/mg)

compound="CC[C@H](C)[C@@H]1NC(=O)[C@H](CC(C)C)N(C)C(=O)[C@H](CC(C)C)N(C)C(=O)[C@H](C)NC(=O)CCCN(C)C(=O)C[C@@H](C(=O)N2CCCCC2)NC(=O)[C@H](CC(C)C)N(C)C(=O)[C@H](Cc2ccccc2)N(C)C(=O)CN(C)C(=O)[C@H]([C@@H](C)O)NC(=O)[C@H](Cc2ccccc2)N(C)C1=O [DP-275] ([NMeGABA]A[NMeL][NMeL]I[NMeF]T[Sar][NMeF][NMeL]D-Piperidide; lactam N-11)" endpoint_result=440
compound="CC[C@H](C)[C@H]1C(=O)N[C@@H](C)C(=O)N[C@H](C(=O)N2CCCCC2)CC(=O)N(C)[C@@H](C)C(=O)N[C@@H]([C@@H](C)O)C(=O)N(C)[C@@H](C)C(=O)N(C)[C@@H](C(C)C)C(=O)N[C@@H](Cc2ccccc2)C(=O)N(C)CC(=O)N(C)[C@@H](CC(C)C)C(=O)N1C [DP-73] ([NMeA]T[NMeA][NMeV]F[Sar][NMeL][NMeI]AD-Piperidide; lactam N-10)" endpoint_result=30
compound="CC[C@H](C)[C@H]1C(=O)N[C@H](C(=O)N2CCCCC2)CC(=O)N[C@@H](C)C(=O)N(C)[C@@H](Cc2ccccc2)C(=O)N(C)[C@@H](CC(C)C)C(=O)N[C@@H]([C@@H](C)O)C(=O)N(C)CC(=O)N(C)[C@@H](CC(C)C)C(=O)N[C@@H](COC(C)(C)C)C(=O)N1C [DP-37] (A[NMeF][NMeL]T[Sar][NMeL]S(tBu)[NMeI]D-Piperidide; lactam N-9)" endpoint_result=156

====

Test: Metabolic stability in human hepatic microsome
Type: in vitro ADME
Conditions: microsomes, pH 7.4; human hepatic microsome, NADPH(+); read-out: CL NADPH(+)
Starred links: 1 amine or outer side, 2 acyl side, 3 side chain; linkers in the order of their positions; H or OH if unused. Positions of bridges follow the written chain, without caps; N, C: chain ends. Non-standard residues stand in square brackets, D forms with d. Residues, ends and D or L forms follow the SMILES beside them. *: point of attachment. NMePhe(3-Cl) = CN[C@@H](Cc1cccc(Cl)c1)C(=O)O; NMeF = CN[C@@H](Cc1ccccc1)C(=O)O; NMeGABA = CN(CCCC(=O)[*:2])[*:1]; NMeI = CC[C@H](C)[C@H](NC)C(=O)O; NMeβAla = CN(CCC(=O)[*:2])[*:1]; NMeL = CN[C@@H](CC(C)C)C(=O)O; NMeV = CN[C@H](C(=O)O)C(C)C; NMeA = CN[C@@H](C)C(=O)O; Piperidide = C1CCN(*)CC1; dNMeA = CN[C@H](C)C(=O)O; β3hA = C[C@H](N)CC(=O)O; Sar = CNCC(=O)O; tBu = CC(C)(C)*
experimental.endpoint: microsomal CLint at 1 uM (µL/min/mg)

compound="CC[C@H](C)[C@@H]1NC(=O)[C@@H]2CCCN2C(=O)[C@H](CC(C)C)N(C)C(=O)[C@H](Cc2ccccc2)NC(=O)CCCN(C)C(=O)C[C@@H](C(=O)N(C)[C@@H](Cc2ccccc2)C(=O)N[C@@H](C)C(=O)N2CCCCC2)NC(=O)[C@H]([C@@H](C)O)NC(=O)[C@H](CC(C)C)NC(=O)[C@H](Cc2ccccc2)N(C)C(=O)CNC(=O)[C@H](CC(C)C)N(C)C1=O [DP-364] ([NMeGABA]F[NMeL]PI[NMeL]G[NMeF]LTD[NMeF]A-Piperidide; lactam N-11)" unit=µL/min/mg endpoint_result=75
compound="CC(C)C[C@H]1C(=O)N[C@H](C(=O)N(C)[C@@H](Cc2ccccc2)C(=O)N(C)[C@@H](Cc2ccccc2)C(=O)N[C@@H](C)C(=O)N2CCCCC2)CC(=O)N(C)CCC(=O)N[C@@H](C)C(=O)N(C)[C@@H](Cc2ccccc2)C(=O)N(C)[C@@H](C(C)C)C(=O)NCC(=O)N[C@@H]([C@@H](C)O)C(=O)N(C)[C@@H](C)C(=O)N[C@@H](C(C)C)C(=O)N1C [DP-391] ([NMeβAla]A[NMeF][NMeV]GT[NMeA]V[NMeL]D[NMeF][NMeF]A-Piperidide; lactam N-10)" unit=µL/min/mg endpoint_result=14
compound="CC(C)C[C@H]1C(=O)N(C)[C@@H](Cc2ccccc2)C(=O)N[C@@H]([C@@H](C)O)C(=O)N(C)[C@@H](C)C(=O)N(C)[C@@H](Cc2ccccc2)C(=O)N(C)[C@@H](C)C(=O)N[C@H](C(=O)N2CCCCC2)CC(=O)N(C)CCC(=O)N(C)[C@@H](C(C)C)C(=O)N[C@@H](C)C(=O)N1C [DP-337] ([NMeβAla][NMeV]A[NMeL][NMeF]T[NMeA][NMeF][NMeA]D-Piperidide; lactam N-10)" unit=µL/min/mg endpoint_result=74
compound="CC(C)C[C@@H]1NC(=O)[C@H](Cc2ccccc2)N(C)C(=O)CNC(=O)[C@H](Cc2ccccc2)NC(=O)[C@H]([C@@H](C)O)NC(=O)[C@H](CC(C)C)N(C)C(=O)CCN(C)C(=O)C[C@@H](C(=O)N2CCCCC2)NC(=O)[C@H](COC(C)(C)C)NC(=O)[C@H](CC(C)C)N(C)C1=O [DP-335] ([NMeβAla][NMeL]TFG[NMeF]L[NMeL]S(tBu)D-Piperidide; lactam N-10)" unit=µL/min/mg endpoint_result=109
compound="CC[C@H](C)[C@H]1C(=O)N[C@@H](C)CC(=O)N(C)[C@H](C)C(=O)N(C)[C@@H](Cc2cccc(Cl)c2)C(=O)N(C)[C@@H](CC(C)C)C(=O)N[C@@H]([C@@H](C)O)C(=O)N(C)CC(=O)N[C@@H](COC(C)(C)C)C(=O)N(C)[C@@H](CC(C)C)C(=O)N1C [DP-799] (cyclo([NMeI][β3hA][dNMeA][NMePhe(3-Cl)][NMeL]T[Sar]S(tBu)[NMeL]))" unit=µL/min/mg endpoint_result=222
